Would you kindly list Ki for each of these molecules?
- test-system: Itk (Homo sapiens)
- Sequence (Q08881 1-620): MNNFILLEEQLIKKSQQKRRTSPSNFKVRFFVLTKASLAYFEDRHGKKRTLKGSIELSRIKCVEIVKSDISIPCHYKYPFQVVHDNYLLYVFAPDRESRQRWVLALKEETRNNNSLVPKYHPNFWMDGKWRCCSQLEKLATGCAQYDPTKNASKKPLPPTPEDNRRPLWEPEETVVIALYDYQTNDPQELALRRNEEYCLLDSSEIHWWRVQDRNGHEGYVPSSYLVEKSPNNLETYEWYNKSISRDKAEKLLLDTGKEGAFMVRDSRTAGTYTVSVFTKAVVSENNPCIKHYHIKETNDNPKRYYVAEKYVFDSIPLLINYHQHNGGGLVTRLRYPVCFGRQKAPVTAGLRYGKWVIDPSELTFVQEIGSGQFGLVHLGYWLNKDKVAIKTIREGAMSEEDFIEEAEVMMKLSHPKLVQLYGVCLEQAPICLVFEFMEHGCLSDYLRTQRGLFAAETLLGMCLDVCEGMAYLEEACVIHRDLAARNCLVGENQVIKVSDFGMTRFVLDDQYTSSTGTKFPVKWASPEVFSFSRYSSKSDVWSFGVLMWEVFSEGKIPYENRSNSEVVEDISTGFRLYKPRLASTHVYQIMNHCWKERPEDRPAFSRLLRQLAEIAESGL
- protocol-details: ITK inhibition assay, radioactive-phosphate incorporation
- Type: biochemical
- condition-details: [γ-33P]ATP, SAM68 peptide, 25° C.

Task item: Tell me the measured Ki of CNc1cncc(-c2c[nH]c(=O)c(NC(=O)c3ccc(NC4CCNCC4)cc3)c2)n1 , please.
Reply: < 100 nM

Task item: Ki for CNc1nccc(-c2c[nH]c(=O)c(NC(=O)c3ccc(C(C)(C)C)cc3)c2)n1 ?
Reply: < 100 nM

Task item: I would be grateful if you could share the reported Ki for CCNc1cncc(-c2c[nH]c(=O)c(NC(=O)c3ccc(N4CCC[C@H]4CN4CCCC4)cc3)c2)n1 .
Reply: 100 to 1000 nM

Task item: Which Ki reading was recorded for the molecule CCOc1ccc(NC(=O)c2cc(-c3ccncc3)c[nH]c2=O)cc1 ?
Reply: 100 to 1000 nM

Task item: Which measured Ki value corresponds to CC(O)[C@@H](CO)Nc1cccc(-c2c[nH]c(=O)c(NC(=O)c3ccc(N4CCCCC4)cc3)c2)n1 (stereo partly shown) ?
Reply: 100 to 1000 nM

Task item: Any idea what its Ki is? The molecule is CNc1nccc(-c2c[nH]c(=O)c(NC(=O)c3ccc(OCc4ccccc4)cc3)c2)n1
Reply: < 100 nM

Task item: What value of measured Ki is listed for CNCCN(C)Cc1ccc(C(=O)Nc2cc(-c3ccncc3)c[nH]c2=O)cc1 ?
Reply: 100 to 1000 nM

Task item: Fill blank: measured Ki of the molecule CNc1cncc(-c2c[nH]c(=O)c(NC(=O)c3ccc(N4CCCNCC4)cc3)c2)n1 is ____.
Reply: < 100 nM

Task item: # get_value(readout='Ki', item= O=C1C=C(c2c[nH]c(=O)c(NC(=O)c3ccc(N4CCCCC4)cc3)c2)CC1 )
Reply: 100 to 1000 nM

Task item: I am curious: what Ki value has been reported for CNc1cncc(-c2c[nH]c(=O)c(NC(=O)c3ccc(N(C)CCN(C)C)cc3)c2)n1 ?
Reply: < 100 nM

Task item: Value lookup for Ki; key = CC(=O)NCCNc1cccc(-c2c[nH]c(=O)c(NC(=O)c3ccc(N4CCCCC4)cc3)c2)n1
Reply: 100 to 1000 nM

Task item: Need Ki of O=C(Nc1cc(-c2ccncc2)c[nH]c1=O)c1ccc(CCl)cc1 , thanks.
Reply: 100 to 1000 nM

Task item: Which value of Ki has been reported for N#Cc1cncc(-c2c[nH]c(=O)c(NC(=O)c3ccc(N4CCCCC4)cc3)c2)c1 in the records?
Reply: 100 to 1000 nM

Task item: Quick check: Ki of O=C(Nc1cc(-c2ccncc2)c[nH]c1=O)c1ccc(N2CCCC2)cc1 ?
Reply: 100 to 1000 nM

Task item: Query (molecule): O=C(Nc1cc(-c2ccncc2)c[nH]c1=O)c1ccc(Cl)cc1 ; field requested: Ki
Reply: 100 to 1000 nM

Task item: I am curious: what Ki value has been reported for O=C(Nc1cc(-c2ccncc2)c[nH]c1=O)c1ccc(CN2CCNCC2)cc1 ?
Reply: 100 to 1000 nM

Task item: What Ki value was documented for this molecule, CC(C)(C)c1ccc(C(=O)Nc2cc(-c3ccnc(NC4CCCNC4)n3)c[nH]c2=O)cc1 (stereo not shown) ?
Reply: < 100 nM

Task item: Given the molecule CN(C)c1ccc(C(=O)Nc2cc(-c3ccncc3)c[nH]c2=O)cc1 , what is its reported Ki?
Reply: 100 to 1000 nM

Task item: Ki for CSc1nccc(-c2c[nH]c(=O)c(NC(=O)c3ccc(N4CCCCC4)cc3)c2)n1 ?
Reply: 100 to 1000 nM

Task item: Requested read-out: Ki. Entry: COCCNc1cccc(-c2c[nH]c(=O)c(NC(=O)c3ccc(N4CCCCC4)cc3)c2)n1
Reply: 100 to 1000 nM

Task item: Which value of Ki has been reported for O=C(Nc1cc(-c2ccncc2)c[nH]c1=O)c1ccc(Oc2ccccc2)cc1 in the records?
Reply: 100 to 1000 nM

Task item: Query: Ki; subject: CNc1nccc(-c2c[nH]c(=O)c(NC(=O)c3ccc(N4CCN(C(C)C)CC4)cc3)c2)n1
Reply: < 100 nM

Task item: Report Ki for CNc1nccc(-c2c[nH]c(=O)c(NC(=O)c3ccc(N4CCC[C@H]4CN4CCCC4)cc3)c2)n1 please.
Reply: < 100 nM

Task item: Please look up its Ki: CC[C@@H](CO)Nc1cccc(-c2c[nH]c(=O)c(NC(=O)c3ccc(N4CCCCC4)cc3)c2)n1
Reply: 100 to 1000 nM

Task item: // Ki lookup, key: CNc1cccc(-c2c[nH]c(=O)c(NC(=O)c3ccc(OCC4CCNCC4)cc3)c2)n1
Reply: < 100 nM

Task item: Please look up its Ki: CNc1cncc(-c2c[nH]c(=O)c(NC(=O)c3ccc(N4CCNCC4)cc3)c2)n1
Reply: < 100 nM

Task item: So what does the record say about Ki for O=C(Nc1cc(-c2ccncc2)c[nH]c1=O)c1ccc(N2CCOCC2)cc1 ?
Reply: 100 to 1000 nM

Task item: What value of Ki has been reported for the following molecule? COc1ccc(NC(=O)c2cc(-c3ccncc3)c[nH]c2=O)cc1OC
Reply: 100 to 1000 nM

Task item: I have this molecule here, CC(C)(C)c1ccc(C(=O)Nc2cc(-c3ccnc(NC4CCNCC4)n3)c[nH]c2=O)cc1 , and I need its recorded Ki.
Reply: < 100 nM

Task item: Record request: Ki value, item O=C(Nc1ccc(C2CCCCC2)cc1)c1cc(-c2ccncc2)c[nH]c1=O
Reply: 100 to 1000 nM

Task item: Reported Ki for CNCCN(C)c1cccc(-c2c[nH]c(=O)c(NC(=O)c3ccc(N4CCCCC4)cc3)c2)n1 : what is it?
Reply: 100 to 1000 nM

Task item: Look up Ki: O=C(Nc1ccc(Br)cc1)c1cc(-c2ccncc2)c[nH]c1=O
Reply: 100 to 1000 nM

Task item: I am curious: what Ki value has been reported for O=C(Nc1cc(-c2cccc(NCCN3CCCC3)n2)c[nH]c1=O)c1ccc(N2CCCCC2)cc1 ?
Reply: 100 to 1000 nM

Task item: Record request: Ki value, item CC(C)(N)CNc1cccc(-c2c[nH]c(=O)c(NC(=O)c3ccc(N4CCCCC4)cc3)c2)n1
Reply: < 100 nM
